- Target or system: MMP-13 (Homo sapiens, UniProt P45452)
- Construct: made in house; host or cells: baculovirus / insect cells
- Assay: biochemical
- Settings: recombinant human MMP-13, MCA peptide substrate 4 μM, pH 7.5, room temperature; read-out: MMP-13 IC50
pIC50: −log10 of the molar value.
# pIC50 per record follows
Endpoint label: pIC50

{"Compound": "CN(C)c1ccc(C(=O)C2CCN(c3ccc(S(=O)(=O)C4(C(=O)NO)CCOCC4)cc3)CC2)cc1 [Example 802]", "Target or system": "MMP-13 (Homo sapiens, UniProt P45452)", "Quantitative result": 8.64}
{"Compound": "CN(C)CCN(C)CCCCC(=O)N1CCC(C(=O)NO)(S(=O)(=O)c2ccc(Oc3ccc(C(F)(F)F)cc3)cc2)CC1", "Target or system": "MMP-13 (Homo sapiens, UniProt P45452)", "Quantitative result": 8.72}
{"Compound": "CC1CC(C)CN(C(=O)C2CCN(c3ccc(S(=O)(=O)C4(C(=O)NO)CCN(C(=O)CN(C)C)CC4)cc3)CC2)C1 (stereo not shown)", "Target or system": "MMP-13 (Homo sapiens, UniProt P45452)", "Quantitative result": 7.23}
{"Compound": "COCCNCC(=O)N1CCC(C(=O)NO)(S(=O)(=O)c2ccc(Oc3ccc(C(F)(F)F)cc3)cc2)CC1", "Target or system": "MMP-13 (Homo sapiens, UniProt P45452)", "Quantitative result": 8.68}

* * *

- Target or system: MMP-2 (Homo sapiens)
- Construct: made in house; provided by Dr. Gregory Goldberg, Washington University
- Sequence (P08253 110-660): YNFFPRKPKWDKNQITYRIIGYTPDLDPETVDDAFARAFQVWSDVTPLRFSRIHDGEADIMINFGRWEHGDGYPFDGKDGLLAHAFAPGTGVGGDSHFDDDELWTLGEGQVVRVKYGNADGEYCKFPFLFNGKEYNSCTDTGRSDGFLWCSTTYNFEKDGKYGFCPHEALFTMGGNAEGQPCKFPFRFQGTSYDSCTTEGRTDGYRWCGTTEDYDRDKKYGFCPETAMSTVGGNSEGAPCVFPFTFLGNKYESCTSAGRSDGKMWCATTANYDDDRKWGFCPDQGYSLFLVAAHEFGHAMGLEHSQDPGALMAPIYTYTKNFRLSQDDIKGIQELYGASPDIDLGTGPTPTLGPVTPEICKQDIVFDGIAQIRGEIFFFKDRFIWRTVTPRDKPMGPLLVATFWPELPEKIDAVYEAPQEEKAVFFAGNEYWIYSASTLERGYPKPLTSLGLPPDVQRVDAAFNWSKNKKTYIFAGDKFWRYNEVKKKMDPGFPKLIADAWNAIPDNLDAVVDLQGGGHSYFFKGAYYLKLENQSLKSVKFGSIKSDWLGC
- Assay: biochemical
- Settings: recombinant human MMP-2, MCA peptide substrate 4 μM, pH 7.5, room temperature; read-out: MMP-2 IC50
The threshold is 300 nM. Values of IC50 beneath it are tagged rule met; values meeting or exceeding it are tagged rule not met.

{"Compound": "O=C(NO)C1(S(=O)(=O)c2ccc(N3CCC(O)CC3)cc2)CCOCC1", "Class assignment": "rule not met"}
{"Compound": "O=C(NCC1CC1)C1CCN(c2ccc(S(=O)(=O)C3(C(=O)NO)CCOCC3)cc2)CC1", "Class assignment": "rule not met"}
{"Compound": "C#CCN1CCC(C(=O)NO)(S(=O)(=O)c2ccc(Oc3ccc(OC(F)(F)F)cc3)cc2)CC1", "Class assignment": "rule met"}
{"Compound": "CCOC1CCN(c2ccc(S(=O)(=O)C3(C(=O)NO)CCOCC3)cc2)CC1", "Class assignment": "rule met"}
{"Compound": "CC1CN(c2ccc(S(=O)(=O)C3(C(=O)NO)CCOCC3)cc2)CCC1OCc1ccc(C(F)(F)F)cc1 (centres unmarked)", "Class assignment": "rule not met"}
{"Compound": "Cc1ccc(C(=O)C2CCN(c3ccc(S(=O)(=O)C4(C(=O)NO)CCN(C5CC5)CC4)cc3)CC2)cc1", "Class assignment": "rule met"}
{"Compound": "O=C(NO)C1(S(=O)(=O)c2ccc(N3CCC(OCc4ccncc4)CC3)cc2)CCOCC1", "Class assignment": "rule not met"}

* * *

- Target or system: MMP-13 (Homo sapiens, UniProt P45452)
- Construct: made in house; host or cells: baculovirus / insect cells
- Assay: biochemical
- Settings: recombinant human MMP-13, MCA peptide substrate 4 μM, pH 7.5, room temperature; read-out: MMP-13 IC50
- Protocol: The compounds prepared in the manner described in the Examples above were assayed for activity by an in vitro assay. […] Briefly, 4-aminophenylmercuric acetate (APMA) or trypsin-activated MMPs were incubated with various concentrations of the inhibitor compound at room temperature for 5 minutes. […] Inhibition was measured as a reduction in fluorescent intensity as a function of inhibitor concentration, using a Perkin Elmer L550 plate reader. The IC50 values were calculated from those values. […]
Endpoint label: log10 IC50 (log10 of the value in nM)

{"Compound": "CS(=O)(=O)N1CCC(C2CCN(c3ccc(S(=O)(=O)C4(C(=O)NO)CCOCC4)cc3)CC2)CC1 [Example 793]", "log10 IC50": 0.60}
{"Compound": "CN(C)S(=O)(=O)N1CC(Oc2ccc(S(=O)(=O)C3(C(=O)NO)CCOCC3)cc2)C1 [Example 853]", "log10 IC50": 1.20}
{"Compound": "N#Cc1ccc(COC2CCN(c3ccc(S(=O)(=O)C4(C(=O)NO)CCOCC4)cc3)CC2)cc1 [Example 180]", "log10 IC50": 0.04}
{"Compound": "CCc1cccc(C(=O)C2CCN(c3ccc(S(=O)(=O)C4(C(=O)NO)CCOCC4)cc3)CC2)c1 [Example 732]", "log10 IC50": 0.49}
{"Compound": "O=C(NO)C1(S(=O)(=O)c2ccc(N3CC4CC3CO4)cc2)CCOCC1 (stereo not drawn) [Example 492]", "log10 IC50": 3.79}
{"Compound": "O=C(NO)C1(S(=O)(=O)c2ccc(N3CCC(OCc4ccc(F)cc4)CC3)cc2)CCOCC1 [Example 164]", "log10 IC50": 0.54}
{"Compound": "CC1CC(C)CN(C(=O)C2CCN(c3ccc(S(=O)(=O)C4(C(=O)NO)CCN(C(=O)CN5CCC(C(=O)O)CC5)CC4)cc3)CC2)C1 (stereo not drawn) [Example 315]", "log10 IC50": 2.62}
{"Compound": "CC1CC(C)CN(C(=O)C2CCN(c3ccc(S(=O)(=O)C4(C(=O)NO)CCN(C(C)C)CC4)cc3)CC2)C1 (stereo not drawn) [Example 458]", "log10 IC50": 2.32}
{"Compound": "O=C(Nc1ccc(Oc2ccccc2)cc1)OC1CCN(c2ccc(S(=O)(=O)C3(C(=O)NO)CCOCC3)cc2)CC1 [Example 519]", "log10 IC50": 1.66}
{"Compound": "Cc1ccc(C2CCN(c3ccc(S(=O)(=O)C4(C(=O)NO)CCOCC4)cc3)CC2)cc1C [Example 869]", "log10 IC50": 0.30}
{"Compound": "CC1CC(C)CN(C(=O)C2CCN(c3ccc(S(=O)(=O)C4(C(=O)NO)CCN(C(=O)CN(CCCN(C)C)CCCN(C)C)CC4)cc3)CC2)C1 (stereo not drawn) [Example 302]", "log10 IC50": 2.24}
{"Compound": "CCc1cccc([C@@H](C)C2CCN(c3ccc(S(=O)(=O)C4(C(=O)NO)CCOCC4)cc3)CC2)c1 [Example 831]", "log10 IC50": 0.36}
{"Compound": "O=C(NO)C1(S(=O)(=O)c2ccc(N3CCC(OCc4cccc(OC(F)(F)F)c4)CC3)cc2)CCOCC1 [Example 173]", "log10 IC50": 0.83}
{"Compound": "O=C(NO)C1(S(=O)(=O)c2ccc(N3CCC(SCc4ccccc4)CC3)cc2)CCOCC1 [Example 707]", "log10 IC50": 0.36}
{"Compound": "CC1CC(C)CN(C(=O)C2CCN(c3ccc(S(=O)(=O)C4(C(=O)NO)CCN(C(=O)CN5CCCC5=O)CC4)cc3)CC2)C1 (stereo not drawn) [Example 314]", "log10 IC50": 1.81}
